Let's look at some binders and their measured koff.
testSystem: T1, hVEGF165 (R&D Systems) (human, UniProt P15692 27-191)
T1 construct: mature; also called biotinylated hVEGF165
T1 sequence (P15692 other isoform, or with tags, fused parts or gaps): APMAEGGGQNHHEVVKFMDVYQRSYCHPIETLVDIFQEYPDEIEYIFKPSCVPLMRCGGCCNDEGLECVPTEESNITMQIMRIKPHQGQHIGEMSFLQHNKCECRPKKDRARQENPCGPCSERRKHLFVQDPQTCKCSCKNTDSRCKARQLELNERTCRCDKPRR
methodNotes: SPR Biacore 3000, periplasmic extract over VEGF165-coated CM5 chip
Please respond with the number in s⁻¹ and leave the unit unwritten.

PVEGFPMP42D7 (VHH, tested as periplasmic extract; not shown: C-terminal c-myc tag and (His)6 tag from the vector) VHH: EVQLVESGGGLVQAGGALRPSCAASGRTFETYRMGWFRQAPGKEREFVALINWSSGTTVYADSVKGRFTISGDNAKDTVYLEMNSLKPEDTAVYYCAVGRRWSGSYYSALAYQYWGQGTQVTVSS : 0.00094

Next binder, koff to be filled in.
Record PVEGFPMP42D10 (VHH, tested as periplasmic extract; not shown: C-terminal c-myc tag and (His)6 tag from the vector) VHH: EVQLVESGGGLVQAGGALRLSCAASGRTFETYRMGWFRQAPGKEREFVALINWSSGITVYLDSVKGRFTISGDNAKDTVYLEMNSLKPEDTAVYYCAVGRAWSGSYYSALAYQYWGQGTQVTVSS . Reported koff: 0.00634
